- Test system: 282377-053-R-J1-PDC complex spheroid viability;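 further: spheroids exposed to agents for seven days before readout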
- method-description: Anticancer human tumor 282377-053-R-J1-PDC patient-derived colon adenocarcinoma cell line growth inhibition [RAS]
- assay-conditions: curve of first compound; second compound 1 µM
assay-endpoint: IC50

response.value for CCc1c2c(nc3ccc(O)cc13)-c1cc3c(c(=O)n1C2)COC(=O)[C@]3(O)CC + C=CC(=O)N1CCN(c2nc(OCC3CCCN3C)nc3c(F)c(-c4nc(N)cc(C)c4C(F)(F)F)c(Cl)cc23)C(C)C1 (field: IC50) = > 300 nM

response.value for Nc1ccn(C2OC(CO)C(O)C2(F)F)c(=O)n1 (stereo not given) + C#Cc1c(F)ccc2cc(O)cc(-c3ncc4c(N5CC6CCC(C5)N6)nc(OCC56CCCN5CC(F)C6)nc4c3F)c12 (field: IC50) = 258 nM

response.value for CC(C)NCC(C(=O)N1CCN(c2ncnc3c2C(C)CC3O)CC1)c1ccc(Cl)cc1 (stereo not given) + C=CC(=O)N1CCN(c2nc(OCC3CCCN3C)nc3c(F)c(-c4nc(N)cc(C)c4C(F)(F)F)c(Cl)cc23)C(C)C1 (field: IC50) = > 10000 nM

response.value for NC1c2ccccc2OC12CCN(c1cnc3c(N4CCCc5ncccc54)n[nH]c3n1)CC2 (stereo not given) + C#Cc1c(F)ccc2cc(O)cc(-c3ncc4c(N5CC6CCC(C5)N6)nc(OCC56CCCN5CC(F)C6)nc4c3F)c12 (field: IC50) = > 10000 nM

response.value for CC(Nc1ccc2c(c1)OCCn1cc(N3C(=O)OCC3C(F)F)nc1-2)C(N)=O (stereo not given) + C=CC(=O)N1CCN(c2nc(OCC3CCCN3C)nc3c(F)c(-c4nc(N)cc(C)c4C(F)(F)F)c(Cl)cc23)C(C)C1 (field: IC50) = > 10000 nM

response.value for CC(Nc1ccc2c(c1)OCCn1cc(N3C(=O)OCC3C(F)F)nc1-2)C(N)=O (stereo not given) + C#Cc1c(F)ccc2cc(O)cc(-c3ncc4c(N5CC6CCC(C5)N6)nc(OCC56CCCN5CC(F)C6)nc4c3F)c12 (field: IC50) = > 10000 nM

response.value for C[C@@H](NC(=O)c1ncnc(N)c1Cl)c1ncc(C(=O)Nc2cc(C(F)(F)F)c(Cl)cn2)s1 + C#Cc1c(F)ccc2cc(O)cc(-c3ncc4c(N5CC6CCC(C5)N6)nc(OCC56CCCN5CC(F)C6)nc4c3F)c12 (field: IC50) = > 10000 nM

response.value for CCN1CCN(Cc2ccc(Nc3ncc(F)c(-c4cc(F)c5nc(C)n(C(C)C)c5c4)n3)nc2)CC1 + C=CC(=O)N1CCN(c2nc(OCC3CCCN3C)nc3c(F)c(-c4nc(N)cc(C)c4C(F)(F)F)c(Cl)cc23)C(C)C1 (field: IC50) = > 1000 nM

response.value for O=C(c1ccc(F)c(F)c1Nc1ccc(I)cc1F)N1CC(O)([C@@H]2CCCCN2)C1 + C#Cc1c(F)ccc2cc(O)cc(-c3ncc4c(N5CC6CCC(C5)N6)nc(OCC56CCCN5CC(F)C6)nc4c3F)c12 (field: IC50) = 45.5 nM

--- query ---
response.value for CCC(CC)c1cc(NC2CCC(N)C2)n2nccc2n1 (stereo not given) + C#Cc1c(F)ccc2cc(O)cc(-c3ncc4c(N5CC6CCC(C5)N6)nc(OCC56CCCN5CC(F)C6)nc4c3F)c12 (field: IC50) = 1700 nM
